Measured values drawn from patent US20210196796A1 for this set.

- tested-system: T1, orthogonal hCD122 receptor (hoRb), hCD122 with H133D and Y134F (human, UniProt P14784 27-550)
- T1 sequence: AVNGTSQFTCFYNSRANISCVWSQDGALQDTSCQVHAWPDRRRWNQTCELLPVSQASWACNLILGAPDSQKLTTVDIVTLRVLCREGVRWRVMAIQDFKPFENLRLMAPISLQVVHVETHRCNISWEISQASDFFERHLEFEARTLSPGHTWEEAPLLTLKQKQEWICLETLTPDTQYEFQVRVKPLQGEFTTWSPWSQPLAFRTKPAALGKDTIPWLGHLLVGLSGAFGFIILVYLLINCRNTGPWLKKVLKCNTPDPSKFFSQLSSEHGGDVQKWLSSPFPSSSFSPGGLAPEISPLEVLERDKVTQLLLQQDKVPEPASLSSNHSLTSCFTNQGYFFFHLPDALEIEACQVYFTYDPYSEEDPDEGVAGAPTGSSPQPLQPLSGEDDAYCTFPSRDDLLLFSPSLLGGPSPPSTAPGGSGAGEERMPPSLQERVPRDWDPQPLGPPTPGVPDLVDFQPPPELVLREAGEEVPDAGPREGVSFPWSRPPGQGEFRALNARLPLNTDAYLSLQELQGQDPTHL
- protocol-summary: cell-based or functional assay
recorded-endpoint: NKL Ortho Proliferation Signal 1:10

Field: example entries. Status: answers known.
Q: Return value of NKL Ortho Proliferation Signal 1:10 for input V91K, SQVLKA (ligand) APTSSSTKKTQLQLSQLLVLLKAILNGINNYKNPKLTRMLTFKFYMPKKATELKHLQCLEEELKPLEEVLNLAQSKNFHLRPRDLISNINKIVLELKGSETTFMCEYADETATIVEFLNRWITFCQSIISTLT , no commentary.
Ans: 5210

Q: Return value of NKL Ortho Proliferation Signal 1:10 for input T3G, SQVLKA (ligand) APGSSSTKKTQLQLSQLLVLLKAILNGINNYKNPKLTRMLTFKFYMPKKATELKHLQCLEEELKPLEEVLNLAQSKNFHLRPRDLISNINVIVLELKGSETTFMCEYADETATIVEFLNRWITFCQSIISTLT , no commentary.
Ans: 66900

Continuing:
Q: Return value of NKL Ortho Proliferation Signal 1:10 for input SQVLKQ (ligand) APTSSSTKKTQLQLSQLLVLLKQILNGINNYKNPKLTRMLTFKFYMPKKATELKHLQCLEEELKPLEEVLNLAQSKNFHLRPRDLISNINVIVLELKGSETTFMCEYADETATIVEFLNRWITFCQSIISTLT , no commentary.
Ans: 82000

Q: Return value of NKL Ortho Proliferation Signal 1:10 for input L18Y, SQVLKA (ligand) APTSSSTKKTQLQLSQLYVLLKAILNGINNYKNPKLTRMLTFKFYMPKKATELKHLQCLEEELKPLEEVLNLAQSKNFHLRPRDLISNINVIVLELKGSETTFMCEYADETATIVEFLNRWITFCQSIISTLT , no commentary.
Ans: 27000
